target: CSF1R (Homo sapiens, UniProt P07333); assay: Competition binding assay, CSF1R Kd; set-up: made in house; settings: competition binding
Sequence (P07333 20-972): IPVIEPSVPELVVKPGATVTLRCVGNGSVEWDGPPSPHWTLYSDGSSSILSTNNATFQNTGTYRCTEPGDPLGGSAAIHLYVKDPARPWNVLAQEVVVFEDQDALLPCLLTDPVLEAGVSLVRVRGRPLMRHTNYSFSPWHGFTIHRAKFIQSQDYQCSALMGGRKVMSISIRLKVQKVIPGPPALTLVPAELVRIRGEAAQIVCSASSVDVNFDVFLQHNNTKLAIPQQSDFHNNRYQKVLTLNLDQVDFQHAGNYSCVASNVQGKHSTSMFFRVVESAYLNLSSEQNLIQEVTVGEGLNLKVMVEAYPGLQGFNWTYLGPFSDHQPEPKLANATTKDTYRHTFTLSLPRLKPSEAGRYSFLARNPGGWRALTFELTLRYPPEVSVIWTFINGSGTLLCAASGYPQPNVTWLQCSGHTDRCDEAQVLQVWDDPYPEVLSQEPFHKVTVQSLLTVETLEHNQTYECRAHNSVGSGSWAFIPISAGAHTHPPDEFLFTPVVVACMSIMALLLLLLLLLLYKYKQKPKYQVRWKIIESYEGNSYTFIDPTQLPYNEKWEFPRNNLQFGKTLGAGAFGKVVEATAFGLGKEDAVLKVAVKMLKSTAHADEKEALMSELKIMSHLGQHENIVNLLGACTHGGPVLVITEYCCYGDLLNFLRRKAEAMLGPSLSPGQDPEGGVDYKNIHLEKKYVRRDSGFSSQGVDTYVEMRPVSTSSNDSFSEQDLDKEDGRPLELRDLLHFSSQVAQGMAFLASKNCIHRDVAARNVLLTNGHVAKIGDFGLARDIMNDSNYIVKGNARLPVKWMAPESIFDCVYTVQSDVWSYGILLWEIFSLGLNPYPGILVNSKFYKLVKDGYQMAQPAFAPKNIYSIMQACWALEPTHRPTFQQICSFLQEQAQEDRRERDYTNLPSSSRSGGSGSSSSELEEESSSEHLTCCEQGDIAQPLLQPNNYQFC
Items are presented alongside their recorded Kd.

// known answers, use as guide
The recorded Kd for O[C@@H]1CCCC[C@H]1Nc1nc2ccc(Cn3cnc4cc(C(F)(F)F)cnc43)cc2s1 is 5 to 20 nM

The recorded Kd for COc1ccccc1Nc1nc2ccc(Cn3cnc4cc(F)cnc43)cc2s1 is 5 to 20 nM

The recorded Kd for O[C@@H]1[C@H](O)CCC[C@H]1Nc1nc2ccc(Cn3cnc4cc(N5CCOCC5)ccc43)cc2s1 is 5 to 20 nM

The recorded Kd for O[C@@H]1CCCC[C@H]1Nc1nc2ccc(Cn3cnc4cc(-n5cccn5)ccc43)cc2s1 is ≤ 5 nM

The recorded Kd for Cc1cc2ncn(Cc3ccc4nc(N[C@@H]5CCCC[C@H]5O)sc4c3)c2cc1C is 5 to 20 nM

The recorded Kd for CC(=NO)c1ccn2c(Cc3ccc4nc(N[C@@H]5CCCC[C@H]5O)sc4c3)cnc2c1 is 5 to 20 nM

The recorded Kd for O[C@@H]1[C@H](O)CCC[C@H]1Nc1nc2ccc(Cc3cnc4cc(-n5nccn5)ccn34)cc2s1 is 5 to 20 nM

The recorded Kd for Fc1cnc2c(c1)ncn2Cc1ccc2nc(N[C@@H]3CCCC[C@H]3Cl)sc2c1 is ≤ 5 nM

More entries:
The recorded Kd for N#Cc1ccc2c(c1)ncn2Cc1ccc2nc(N[C@@H]3CCCC[C@H]3O)sc2c1 is 5 to 20 nM

The recorded Kd for C=Cc1ccn2c(Cc3ccc4nc(N[C@@H]5CCCC[C@H]5O)sc4c3)cnc2c1 is 5 to 20 nM

The recorded Kd for O=C(c1ccn2c(Cc3ccc4nc(N[C@@H]5CCCC[C@H]5O)sc4c3)cnc2c1)N1CCCC1 is 5 to 20 nM

----------
target: CSF1R (Homo sapiens, UniProt P07333); assay: HEK293 CSF1R phosphorylation MSD assay; type: cell-based; parameters: expressed in transfected cells; host or cells: HEK293; details: HEK293 cells, M-CSF stimulated CSF1R phosphorylation, MSD; read-out: HEK293 pCSF1R M-CSF MSD:IC50
Items are presented alongside their recorded IC50.

Measured IC50 for this entry C=C(c1ccc2c(c1)ncn2Cc1ccc2nc(N[C@@H]3CCCC[C@H]3O)sc2c1)C(F)(F)F on CSF1R (Homo sapiens, UniProt P07333): 50 to 200 nM

Measured IC50 for this entry N#Cc1cc2ncn(Cc3ccc4nc(N[C@@H]5CCCC[C@H]5O)sc4c3)c2nc1C#N on CSF1R (Homo sapiens, UniProt P07333): 200 to 500 nM

Measured IC50 for this entry O[C@@H]1CCCC[C@H]1Nc1nc2ccc(Cn3cnc4cc(C5=CCNCC5)ccc43)cc2s1 on CSF1R (Homo sapiens, UniProt P07333): 50 to 200 nM

Measured IC50 for this entry O[C@@H]1CCCC[C@H]1Nc1nc2ccc(Cn3cnc4cc(F)cc(F)c43)cc2s1 on CSF1R (Homo sapiens, UniProt P07333): 50 to 200 nM

More entries:
Measured IC50 for this entry O[C@@H]1CCCC[C@H]1Nc1nc2ccc(Cn3cnc4cc(OC5COC5)ccc43)cc2s1 on CSF1R (Homo sapiens, UniProt P07333): ≤ 50 nM

Measured IC50 for this entry O[C@@H]1CCCC[C@H]1Nc1nc2ccc(Cn3cnc4cc(-n5cncn5)cnc43)cc2s1 on CSF1R (Homo sapiens, UniProt P07333): ≤ 50 nM

Measured IC50 for this entry O[C@@H]1CCCC[C@H]1Nc1nc2ccc(Cc3cnc4cc(N5CCOCC5)ccn34)cc2s1 on CSF1R (Homo sapiens, UniProt P07333): 50 to 200 nM

Measured IC50 for this entry CC(=O)c1ccn2c(Cc3ccc4nc(N[C@@H]5CCCC[C@H]5O)sc4c3)cnc2c1 on CSF1R (Homo sapiens, UniProt P07333): 50 to 200 nM

Measured IC50 for this entry OC[C@@H]1CCCC[C@H]1Nc1nc2ccc(Cn3cnc4cc(Br)cnc43)cc2s1 on CSF1R (Homo sapiens, UniProt P07333): 50 to 200 nM

----------
Items are presented alongside their recorded pKd.
Target: FLT3 (Homo sapiens)
Construct: made in house
Sequence (P36888 27-993): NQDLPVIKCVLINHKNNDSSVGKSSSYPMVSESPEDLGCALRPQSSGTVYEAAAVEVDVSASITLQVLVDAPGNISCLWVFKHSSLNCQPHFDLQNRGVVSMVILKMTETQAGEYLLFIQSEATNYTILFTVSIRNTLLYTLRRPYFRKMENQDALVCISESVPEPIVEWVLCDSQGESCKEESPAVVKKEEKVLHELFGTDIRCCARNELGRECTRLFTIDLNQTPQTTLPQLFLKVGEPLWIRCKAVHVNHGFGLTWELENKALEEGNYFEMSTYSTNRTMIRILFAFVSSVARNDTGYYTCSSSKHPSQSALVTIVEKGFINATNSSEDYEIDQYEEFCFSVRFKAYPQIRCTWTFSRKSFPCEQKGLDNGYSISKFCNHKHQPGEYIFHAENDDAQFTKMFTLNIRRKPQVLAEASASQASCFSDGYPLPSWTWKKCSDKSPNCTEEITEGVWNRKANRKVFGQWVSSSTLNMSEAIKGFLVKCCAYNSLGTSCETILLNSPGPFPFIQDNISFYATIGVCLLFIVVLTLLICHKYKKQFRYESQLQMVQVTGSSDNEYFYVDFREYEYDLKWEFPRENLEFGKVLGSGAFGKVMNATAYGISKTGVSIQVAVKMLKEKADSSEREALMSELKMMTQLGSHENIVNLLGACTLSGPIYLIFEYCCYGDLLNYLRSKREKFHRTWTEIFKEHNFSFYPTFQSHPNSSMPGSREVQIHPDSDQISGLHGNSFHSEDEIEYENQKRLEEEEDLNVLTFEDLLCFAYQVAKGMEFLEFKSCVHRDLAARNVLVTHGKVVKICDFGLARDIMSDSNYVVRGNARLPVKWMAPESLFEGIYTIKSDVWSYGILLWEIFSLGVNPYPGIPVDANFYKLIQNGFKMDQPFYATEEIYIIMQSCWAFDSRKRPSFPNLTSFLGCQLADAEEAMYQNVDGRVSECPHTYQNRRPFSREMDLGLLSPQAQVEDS
Test: Competition binding assay, FLT3 Kd
pKd: −log10 of the molar value.

// known answers, use as guide
The recorded pKd for CC(=O)Nc1cn(Cc2ccc3nc(N[C@@H]4CCCC[C@H]4O)sc3c2)cn1 is 6.00 to 6.70

The recorded pKd for COc1ccc2ncn(Cc3ccc4nc(N[C@@H]5CCCC[C@H]5O)sc4c3)c2c1 is 5.30 to 6.00

The recorded pKd for O[C@@H]1CCCC[C@H]1Nc1nc2ccc(Cn3cnc4cc(Br)cnc43)cc2s1 is 6.00 to 6.70

The recorded pKd for COc1cc2ncn(Cc3ccc4nc(NCc5ccccn5)sc4c3)c2cc1OC is 5.30 to 6.00

The recorded pKd for COc1cc2ncn(Cc3ccc4nc(NC5CCCCC5)sc4c3)c2cc1OC is ≥ 6.70

The recorded pKd for CC(=O)c1ccc2ncn(Cc3ccc4nc(N[C@@H]5CCCC[C@H]5O)sc4c3)c2n1 is 6.00 to 6.70

More entries:
The recorded pKd for O[C@@H]1CCCC[C@H]1Nc1nc2ccc(Cn3cnc4cc(CN5CCOCC5)cnc43)cc2s1 is 5.30 to 6.00

The recorded pKd for COc1cc2ncn(Cc3ccc4nc(N[C@@H]5c6ccccc6C[C@H]5O)sc4c3)c2cc1OC is 5.30 to 6.00

----------
Items are presented alongside their recorded pKd.
target: FLT3 (Homo sapiens, UniProt P36888); construct: made in house; experiment: Competition binding assay, FLT3 Kd
pKd: −log10 of the molar value.

// known answers, use as guide
The recorded pKd for O[C@@H]1CCCC[C@H]1Nc1nc2ccc(Cn3cnc4cc(Cl)cnc43)cc2s1 is 5.30 to 6.00

The recorded pKd for COc1cc2ncn(Cc3ccc4nc(NCCN5CCOCC5)sc4c3)c2cc1OC is 5.30 to 6.00

The recorded pKd for O[C@@H]1CCCC[C@H]1Nc1nc2ccc(Cn3cnc4cc(Br)ccc43)cc2s1 is 5.30 to 6.00

The recorded pKd for O[C@H]1CCCCC1Nc1nc2ccc(Cn3cnc4ccccc43)cc2s1 (stereo in doubt) is 6.00 to 6.70

The recorded pKd for COC(c1ccc2nc(N[C@@H]3CCCC[C@H]3O)sc2c1)c1c[nH]c2ncccc12 (some centres unmarked) is 5.30 to 6.00

The recorded pKd for O[C@@H]1CCCC[C@H]1Nc1nc2ccc(Cn3cnc4cnccc43)cc2s1 is < 5.30

More entries:
The recorded pKd for CCc1cnc2c(c1)ncn2Cc1ccc2nc(N[C@@H]3CCCC[C@H]3O)sc2c1 is 6.00 to 6.70

The recorded pKd for COC(=O)c1cnc2c(c1)ncn2Cc1ccc2nc(N[C@@H]3CCCC[C@H]3O)sc2c1 is 6.00 to 6.70

The recorded pKd for Nc1nc2cccnc2n1Cc1ccc2nc(N[C@@H]3CCCC[C@H]3O)sc2c1 is 6.00 to 6.70

The recorded pKd for O[C@@H]1CCCC[C@H]1Nc1nc2ccc(Cn3cnc4cc(Br)cnc43)cc2o1 is ≥ 6.70

The recorded pKd for OC1(CNc2nc3ccc(Cn4cnc5cccnc54)cc3s2)CCCCC1 is 5.30 to 6.00

The recorded pKd for CNC(=O)c1cnc2c(c1)ncn2Cc1ccc2nc(N[C@@H]3CCCC[C@H]3O)sc2c1 is 5.30 to 6.00

The recorded pKd for O[C@@H]1CCCC[C@H]1Nc1nc2ccc(Cn3cnc4cc(N5CCOCC5)cnc43)cc2s1 is 6.00 to 6.70

The recorded pKd for COc1cc2c(cc1C#N)ncn2Cc1ccc2nc(N[C@@H]3CCCC[C@H]3O)sc2c1 is 5.30 to 6.00
